- measured-on: T1, succinyl-L-alanyl-L-alanyl-L-prolyl-L-phenylalanyl-p-nitroanilide
- T1 sequence (peptide, N-terminal succinyl; C-terminal p-nitroanilide): AAPF
binders and their reported kcat · Km^-1
measured-endpoint: kcat · Km^-1 (M⁻¹ s⁻¹)

1) BLAP mutant F47 (S3T + V4I + S154D + A188P + V193M + V199I) (enzyme) AQTIPWGISRVQAPAAHNRGLTGSGVKVAVLDTGISTHPDLNIRGGASFVPGEPSTQDGNGHGTHVAGTIAALNNSIGVLGVAPSAELYAVKVLGADGRGAISSIAQGLEWAGNNGMHVANLSLGSPSPSATLEQAVNSATSRGVLVVAASGNDGASSISYPARYANAMAVGATDQNNNRASFSQYGPGLDIMAPGVNIQSTYPGSTYASLNGTSMATPHVAGAAALVKQKNPSWSNVQIRNHLKNTATSLGSTNLYGSGLVNAEAATR; 124000
2) Bacillus lentus DSM 5483 alkaline protease (BLAP), wild type enzyme (enzyme) AQSVPWGISRVQAPAAHNRGLTGSGVKVAVLDTGISTHPDLNIRGGASFVPGEPSTQDGNGHGTHVAGTIAALNNSIGVLGVAPSAELYAVKVLGADGRGAISSIAQGLEWAGNNGMHVANLSLGSPSPSATLEQAVNSATSRGVLVVAASGNSGASSISYPARYANAMAVGATDQNNNRASFSQYGAGLDIVAPGVNVQSTYPGSTYASLNGTSMATPHVAGAAALVKQKNPSWSNVQIRNHLKNTATSLGSTNLYGSGLVNAEAATR; 297000
